B1: HESX1 (parent)
chain: HVPNPPSGISFPSVVDHPMPEERA

Variants of: B1
protocol: protein stability index of a GFP-peptide fusion (GPS, HEK-293T) (PSI 1-6); higher = more stable;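 also: lentivirally expressed fusions sorted by FACS into six bins by GFP to DsRed ratio, PSI derived from sequencing read proportions per bin multiplied by bin number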
protocol conditions: c terminus: a fixed tail appended
Kindly supply the reported protein stability index values for the records listed here.
Answers are plain numbers.

Record excerpt, results attached:
[[record]]
alteration = "M19D"
data_value = 2.94

[[record]]
alteration = "P6S"
data_value = 2.4

[[record]]
alteration = "S10Q"
data_value = 2.42


Would you mind giving protein stability index for every variant in the list below?
1. E22K
2. P3V
3. P3H
4. P5W
5. P18L
6. D16S

1. 1.83
2. 3.86
3. 4.13
4. 2.39
5. 2.56
6. 2.22

Would you mind giving protein stability index for every variant in the list below?
1. P5A
2. V2N

1: 2.71; 2: 5.14

Data credit: the supplement of paper PMC10567573
